experiment.summary: log P by HPLC
Type: physicochemical
run.parameters: HPLC
For each entry below, report its chromatographic logP value.
API note: the answer field is a bare number with no unit suffix.

Requested read-out: chromatographic logP. Entry: Oc1nc2nc(C(F)(F)F)nn2c(O)c1-c1c(F)cc(F)cc1F
0.81

Requested read-out: chromatographic logP. Entry: Fc1cc(F)c(-c2c(Cl)nc3nc(C(F)(F)F)nn3c2N2CCC(C(F)(F)F)CC2)c(F)c1
4.43

Requested read-out: chromatographic logP. Entry: Fc1cc(F)c(-c2c(Cl)nc3nc(C(F)(F)F)nn3c2Cl)c(F)c1
3.71

###

experiment.summary: log P by HPLC
Format: physicochemical
run.parameters: EEC directive 79/831 Annex V. A8 by HPLC (gradient method, acetonitrile/0.1% aqueous phosphoric acid)
measure: logP
API note: the answer field is a bare number with no unit suffix.

Requested read-out: logP. Entry: CCN(CC1CCCO1)c1c(-c2c(F)cccc2Cl)c(Cl)nc2nc(C)nn12 (centres unmarked)
3.29

Requested read-out: logP. Entry: Cc1nc2nc(Cl)c(-c3c(F)cccc3F)c(NC3CCCCC3C(F)(F)F)n2n1 (centres unmarked)
3.52

Requested read-out: logP. Entry: Cc1nc2nc(Cl)c(-c3c(F)cccc3Cl)c(N3CCC(C)CC3)n2n1
3.99

Requested read-out: logP. Entry: Cc1nc2nc(Cl)c(-c3ccc(F)cc3F)c(N(C)CCC#N)n2n1
2.34

Requested read-out: logP. Entry: Cc1nc2nc(Cl)c(-c3ccc(F)cc3F)c(N3CCCCC3C)n2n1 (centres unmarked)
3.7

Requested read-out: logP. Entry: Cc1nc2nc(Cl)c(-c3ccccc3F)c(N3CCC(N4CCOCC4)CC3)n2n1
1.26

Requested read-out: logP. Entry: Cc1nc2nc(Cl)c(-c3c(F)cccc3F)c(N3CCC(O)CC3)n2n1
1.83

Requested read-out: logP. Entry: Fc1ccc(-c2c(Cl)nc3nc(C4CC4)nn3c2N2CCCCN2)c(Cl)c1
3.58

Requested read-out: logP. Entry: Cc1nc2nc(Cl)c(-c3ccc(F)cc3F)c(NC3CCCC3)n2n1
3.24

Requested read-out: logP. Entry: C[C@H](Nc1c(-c2ccc(F)cc2F)c(Cl)nc2nc(C3CC3)nn12)C(F)(F)F (single isomer, unassigned) [compound 489]
3.51

Requested read-out: logP. Entry: CC(C)CN(C)c1c(-c2ccccc2Cl)c(Cl)nc2nc(C3CC3)nn12
4.41

Requested read-out: logP. Entry: CC1CCCN1c1c(-c2ccccc2Cl)c(Cl)nc2nc(C3CC3)nn12 (centres unmarked)
3.99

Requested read-out: logP. Entry: Cc1nc2nc(Cl)c(-c3c(F)cccc3F)c(N3CC=CCC3)n2n1
3.01

Requested read-out: logP. Entry: Cc1nc2nc(Cl)c(-c3c(F)cccc3F)c(NCC(C)(C)C)n2n1
3.27

Requested read-out: logP. Entry: CN(CC1CC1(Cl)Cl)c1c(-c2c(F)cc(F)cc2F)c(Cl)nc2nc(C3CC3)nn12 (centres unmarked)
4.26

Requested read-out: logP. Entry: C=C(C)CN(CC)c1c(-c2ccccc2Cl)c(Cl)nc2nc(C3CC3)nn12
4.59

Requested read-out: logP. Entry: CCN(CCOC)c1c(-c2c(F)cccc2Cl)c(Cl)nc2nc(C)nn12
3.03

# credit: patent US7186831B2
